- ASSAYED_SYSTEM: T1, recombinant canine OX40L ECD-TNCc-HIS protein (canine)
- T1 construct: also called Trimeric OX40L probe (HIS tag); trimeric canine OX40L
- T1 chain: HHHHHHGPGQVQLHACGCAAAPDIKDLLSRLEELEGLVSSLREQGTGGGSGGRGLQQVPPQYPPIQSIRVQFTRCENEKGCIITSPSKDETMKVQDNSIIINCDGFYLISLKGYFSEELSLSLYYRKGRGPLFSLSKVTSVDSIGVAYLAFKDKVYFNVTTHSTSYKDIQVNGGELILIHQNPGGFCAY
- TEST_NAME: SPR KD1, bivalent analyte model
- Protocol: Affinity (Kd) of OX40L antibodies is measured by SPR, using a recombinant canine OX40L ECD-TNCc-HIS protein (Seq ID 811) as the capturing agent (FIG. 5B). Functional affinity is determined using a Biakore 8K (Cytiva). in brief, purified OX40L ECD-TNCc-HIS protein is covalently bound at low density to the surface of a CM5 sensor chip (Cytiva) by amine coupling, using the manufacturer's recommended protocol. […]
Consider the following binders and their measured Kd readings.
Report the figure in nM without appending any unit label.

| BINDER | Kd [nM] |
| --- | --- |
| PMX105 (antibody, V domains shown) VH: EVQLVESGGDLVKPGGSLRLSCVASGFTFNTYHMNWVRQAPGKGLHWVAFINSGGSGTSYEDTVQGRFTISRDYAKNTLYLQMNSLRAEDTAVYYCACGSIWTHFDYWGQGTLVTVSS VL: SYVLTQLPSVSVTLRQTAHITCGGDIIGSKSVYWYQQKLGQAPVMIIYRDNNRPTGIPERFSGASSGNTATLTISGSLAEDEADYYCQVWDSRTQALFGGGTHLTVL | 17.6 |
| PMX040 (antibody, V domains shown, also called PMX40) VH: EVQLVESGGDLVKPGGSLRLSCVASGFTFSNFEMYWVRQAPGKGLEWVARIYESGTTTYHAEGVKGRFTISKDNVKNMAYLQMNSLRAEDTAVYYCTSASSSSWRFDYWGQGTLVTVSS VL: SYVLTQLPSVSVTLRQTARITCGGDSIGRKNVCWFQQKLGQAPILIIYDDSSRPSGIPERFSGANSGNTATLTISGALAEDEADYYCQVWDSSTGIFGGGTHLTVL | 1.26 |
| PMX063 (antibody, V domains shown, also called PMX63) VH: EVQLVESGGDLVRPGGSLRLSCVASGFTFNNYHMSWVRQAPGKGLQWVAFINSGGSGTTFADVVRGRFTISRDYAKNALYLQMNSLRAEDTAVYYCASGSIWTHFDYWGQGTLVTVSS VL: SFVLTQLPSVSVTLRQTARITCGGDIIGSKNVYWYQQRLGQAPVLIIYRDNNRPTGIPERFSGASSGNTATLTISGALAEDEADYYCQVWDNSNKAMFGGGTHLTVL | 0.271 |
| PMX156 (antibody, V domains shown) VH: ELQLVESGGDLVKPAGSLRLSCVASGFTFSNFRMSWVRQAPGKGLQFVAGINSDGYSTQYRDDVKGRFTISRDNTEKTLYLQMNNLRVEDTAMYYCVKDQGSWGGNFDYWGQGTLVTVSS VL: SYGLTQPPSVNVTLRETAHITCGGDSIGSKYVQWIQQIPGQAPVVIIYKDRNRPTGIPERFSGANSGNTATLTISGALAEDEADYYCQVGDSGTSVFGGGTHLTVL | 1980 |

Moving on to the next binder.
[ask] Which Kd value is on record for PMX155 (antibody, V domains shown) VH: ELHLVESGGDLVKPAGSLRLSCVASGFTFSSFRMSWVRQSPGKGLQFVAGINSDGYNTQYRDDVKGRFTISRDNTEKTLYLQMNNLRVEDTAMYYCVKDQGSWGGNFDFWGQGTLVTVSS VL: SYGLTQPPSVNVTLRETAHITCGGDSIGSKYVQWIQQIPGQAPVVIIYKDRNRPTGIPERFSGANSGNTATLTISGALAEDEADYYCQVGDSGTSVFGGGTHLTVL ?
[reply] 90.6
